ASSAY_REMARKS: Metabolic stability in dog liver microsomes assessed as parent compound remaining after 90 mins in presence of NADPH by HPLC analysis
Format: ADME, Canis lupus familiaris, microsome
CONDITION_INFO: read-out: Stability
PROPERTY: remaining at 1.5 h (%)
Record the value in %, omitting the unit from your answer.

Q: Form field: reported remaining at 1.5 h of COC(=O)[C@]1(C)CCC[C@]2(C)c3ccc(C(C)C)c(NC(=O)Cn4cc(-c5cccc(NC(=O)OC(C)(C)C)c5)nn4)c3CC[C@@H]12
Ans: 31.6

---

Tested on: SK-OV-3
ASSAY_REMARKS: Cytotoxicity against human SKOV3 cells assessed as reduction in cell viability after 72 hrs by MTT assay
Type: functional, cell-based
CONDITION_INFO: SK-OV-3, 72 h
Could you please report measured pIC50 for the items listed next?
For clarity, pIC50 is expressed as the negative log10 of concentration in mol/L.

Q: Form field: reported pIC50 of COC(=O)[C@]1(C)CCC[C@]2(C)c3ccc(C(C)C)c(NC(=O)Cn4cc(-c5ccccc5)nn4)c3CC[C@@H]12
Ans: 5.32

Q: Form field: reported pIC50 of COC(=O)[C@]1(C)CCC[C@]2(C)c3ccc(C(C)C)c(NC(=O)Cn4cc([Si](C)(C)C)nn4)c3CC[C@@H]12
Ans: 4.19

Q: Form field: reported pIC50 of COC(=O)[C@]1(C)CCC[C@]2(C)c3ccc(C(C)C)c(NC(=O)Cn4cc(-c5ccc([N+](=O)[O-])cc5)nn4)c3CC[C@@H]12
Ans: 4.11

Q: Form field: reported pIC50 of COC(=O)[C@]1(C)CCC[C@]2(C)c3ccc(C(C)C)c(NC(=O)Cn4cc(-c5cccc(NC(C)=O)c5)nn4)c3CC[C@@H]12
Ans: 5.41

Q: Form field: reported pIC50 of COC(=O)[C@]1(C)CCC[C@]2(C)c3ccc(C(C)C)c(NC(=O)Cn4cc(CNc5nc(Cl)nc(Cl)n5)nn4)c3CC[C@@H]12
Ans: 4.04

---

Test system: SK-OV-3
ASSAY_REMARKS: Cytotoxicity against human SKOV3 cells assessed as reduction in cell viability after 72 hrs by MTT assay
Type: functional, cell-based
CONDITION_INFO: SK-OV-3, 72 h
Mark Y for IC50 under 20 µM, N if at or over.

Q: Please let me know if COC(=O)[C@]1(C)CCC[C@]2(C)c3ccc(C(C)C)c(NC(=O)Cn4cc(-c5cc(OC)cc(OC)c5)nn4)c3CC[C@@H]12 shows IC50 below 20 µM.
Ans: Y

Q: Please let me know if O=c1[nH]cc(F)c(=O)[nH]1 shows IC50 below 20 µM.
Ans: N

Q: Please let me know if COC(=O)[C@]1(C)CCC[C@]2(C)c3ccc(C(C)C)c(NC(=O)Cn4cc(-c5ccc(F)cc5)nn4)c3CC[C@@H]12 shows IC50 below 20 µM.
Ans: Y

Q: Please let me know if COC(=O)[C@]1(C)CCC[C@]2(C)c3ccc(C(C)C)c(NC(=O)Cn4cc(C5CC5)nn4)c3CC[C@@H]12 shows IC50 below 20 µM.
Ans: Y

Q: Please let me know if COC(=O)[C@]1(C)CCC[C@]2(C)c3ccc(C(C)C)c(NC(=O)Cn4cc(-c5ccccc5F)nn4)c3CC[C@@H]12 shows IC50 below 20 µM.
Ans: Y

Q: Please let me know if COC(=O)[C@]1(C)CCC[C@]2(C)c3ccc(C(C)C)c(NC(=O)CCl)c3CC[C@@H]12 shows IC50 below 20 µM.
Ans: N

Q: Please let me know if COC(=O)[C@]1(C)CCC[C@]2(C)c3ccc(C(C)C)c(N)c3CC[C@@H]12 shows IC50 below 20 µM.
Ans: Y

Q: Please let me know if COC(=O)[C@]1(C)CCC[C@]2(C)c3ccc(C(C)C)c(NC(=O)Cn4cc(-c5ccccn5)nn4)c3CC[C@@H]12 shows IC50 below 20 µM.
Ans: N

Q: Please let me know if COC(=O)[C@]1(C)CCC[C@]2(C)c3ccc(C(C)C)c(NC(=O)Cn4cc(-c5cccc(F)c5)nn4)c3CC[C@@H]12 shows IC50 below 20 µM.
Ans: N

Q: Please let me know if COC(=O)[C@]1(C)CCC[C@]2(C)c3ccc(C(C)C)c(NC(=O)Cn4cc(CBr)nn4)c3CC[C@@H]12 shows IC50 below 20 µM.
Ans: N

Q: Please let me know if COC(=O)[C@]1(C)CCC[C@]2(C)c3ccc(C(C)C)c(NC(=O)Cn4cc(-c5ccc6ccccc6c5)nn4)c3CC[C@@H]12 shows IC50 below 20 µM.
Ans: N

Q: Please let me know if COC(=O)[C@]1(C)CCC[C@]2(C)c3ccc(C(C)C)c(NC(=O)Cn4cc(-c5cccc([N+](=O)[O-])c5)nn4)c3CC[C@@H]12 shows IC50 below 20 µM.
Ans: N

Q: Please let me know if COC(=O)[C@]1(C)CCC[C@]2(C)c3ccc(C(C)C)c(NC(=O)Cn4cc(-c5cccc(OC)c5)nn4)c3CC[C@@H]12 shows IC50 below 20 µM.
Ans: Y

Q: Please let me know if COC(=O)[C@]1(C)CCC[C@]2(C)c3ccc(C(C)C)c(NC(=O)Cn4cc(Cc5ccccc5)nn4)c3CC[C@@H]12 shows IC50 below 20 µM.
Ans: N

---

ASSAY_REMARKS: Octanol-water partition coefficient, log P of the compound
Format: physicochemical
Mark y for logP under 5, n if at or over.

Q: Please let me know if COC(=O)[C@]1(C)CCC[C@]2(C)c3ccc(C(C)C)c(NC(=O)Cn4cc(-c5ccc(OC(F)(F)F)cc5)nn4)c3CC[C@@H]12 shows logP below 5.
Ans: n

Q: Please let me know if COC(=O)c1nnn(CC(=O)Nc2c(C(C)C)ccc3c2CC[C@H]2[C@](C)(C(=O)OC)CCC[C@]32C)c1C(=O)OC shows logP below 5.
Ans: y

Q: Please let me know if COC(=O)[C@]1(C)CCC[C@]2(C)c3ccc(C(C)C)c(NC(=O)Cn4cc(C5CC5)nn4)c3CC[C@@H]12 shows logP below 5.
Ans: y

Q: Please let me know if COC(=O)[C@]1(C)CCC[C@]2(C)c3ccc(C(C)C)c(NC(=O)Cn4cc(-c5cccc(OC)c5)nn4)c3CC[C@@H]12 shows logP below 5.
Ans: n

Q: Please let me know if COC(=O)[C@]1(C)CCC[C@]2(C)c3ccc(C(C)C)c(NC(=O)Cn4cc(-c5ccc([N+](=O)[O-])cc5)nn4)c3CC[C@@H]12 shows logP below 5.
Ans: n

Q: Please let me know if COC(=O)[C@]1(C)CCC[C@]2(C)c3ccc(C(C)C)c(NC(=O)Cn4cc(-c5cc(OC)cc(OC)c5)nn4)c3CC[C@@H]12 shows logP below 5.
Ans: n

Q: Please let me know if COC(=O)[C@]1(C)CCC[C@]2(C)c3ccc(C(C)C)c(NC(=O)Cn4cc(-c5ccc(F)cc5)nn4)c3CC[C@@H]12 shows logP below 5.
Ans: n

Q: Please let me know if COC(=O)[C@]1(C)CCC[C@]2(C)c3ccc(C(C)C)c(NC(=O)Cn4cc(-c5cccc(NC(=O)OC(C)(C)C)c5)nn4)c3CC[C@@H]12 shows logP below 5.
Ans: n

Q: Please let me know if COC(=O)[C@]1(C)CCC[C@]2(C)c3ccc(C(C)C)c(NC(=O)Cn4cc(-c5ccc(OC)cc5)nn4)c3CC[C@@H]12 shows logP below 5.
Ans: n

Q: Please let me know if COC(=O)[C@]1(C)CCC[C@]2(C)c3ccc(C(C)C)c(NC(=O)Cn4cc(CBr)nn4)c3CC[C@@H]12 shows logP below 5.
Ans: y

---

Tested on: LNCaP
ASSAY_REMARKS: Cytotoxicity against human LNCAP cells assessed as reduction in cell viability after 72 hrs by MTT assay
Assay type: functional, cell-based
PROPERTY: pIC50
For clarity, pIC50 is expressed as the negative log10 of concentration in mol/L.

Q: Form field: reported pIC50 of COC(=O)[C@]1(C)CCC[C@]2(C)c3ccc(C(C)C)c(NC(=O)Cn4cc(-c5cccc(NC(=O)OC(C)(C)C)c5)nn4)c3CC[C@@H]12
Ans: 6.22

---

Test system: MCF7
ASSAY_REMARKS: cells
CONDITION_INFO: Homo sapiens, MCF7, 72 h
Description: Cytotoxicity against human MCF7 cells assessed as reduction in cell viability after 72 hrs by MTT assay
Could you please report measured IC50 for the items listed next?
Record the value in µM, omitting the unit from your answer.

Q: Checklist item: IC50 tested on MCF7, entry COC(=O)[C@]1(C)CCC[C@]2(C)c3ccc(C(C)C)c(NC(=O)Cn4cc(-c5ccc(F)cc5)nn4)c3CC[C@@H]12 , value?
Ans: 1.9

Q: Checklist item: IC50 tested on MCF7, entry COC(=O)[C@]1(C)CCC[C@]2(C)c3ccc(C(C)C)c(NC(=O)Cn4cc(-c5ccc(OC)cc5)nn4)c3CC[C@@H]12 , value?
Ans: 1.4

Q: Checklist item: IC50 tested on MCF7, entry COC(=O)[C@]1(C)CCC[C@]2(C)c3ccc(C(C)C)c(NC(=O)Cn4cc(C5CC5)nn4)c3CC[C@@H]12 , value?
Ans: 24.2

Value source: ChEMBL document CHEMBL4130367
